// Enzyme Activity Endpoint Assay: IgG lookup, one value per entry
- experimental-system: pooled human IgG (human IgG1, 2, 3 and 4)
Respond numerically; units are ng/µL and should not be typed.

{"protein": "PRT-451 (protein) MVTSVWTKGVTPPANFRKIVDGNIAYYHAPYKANQGWYDITKTFNGKDDLLCGAATAGNMLHWWFDQNKDQIEAYLKEHPEKQKINFNGEQMFDVKEAIDTKDDQTNSKLFEYFKEKAFPYLSTKHLGVFPDHVLDMFINGYRLSLTNHGPTPVKEGSKDPRGGIFDAVFTRGDQSKLLTSRHDLKNKTLKEISDLIKQELTEGKALALSHTYANVRINHVINLWGADFDSNGNLEAIYVTDSDSNASIGMKKYFVGVNSAGKVAISAKEIEDDNIGAQVLGLFTLSTGQDIWNQTNLEHHHHHH", "quantity-kind": "Enzyme Activity Endpoint Assay: IgG", "quantitative-readout": 0}

From here, focus on the item given below.
Request: Find the measured Enzyme Activity Endpoint Assay: IgG of PRT-590 (protein) MANQEIRYSEETPSTVTSVWTKGVTPPTDFIQNEDVLHAPYIANQGWYDITKTFNGKDDLLCGAATAGNMLHWWFDQNKEQIENYLKKHPEKQKINFNGEQMFDVKEAIDTKDSQTDSALFEYFKDKAFPYLSTKHLGVFPDHVIDMFINGYRLSLTNHGPTPVKRGTKDPRGGIFDAVFTRGDQSKLLTSRHDFKEKTLNEISDLIKQELTEGKALGLSHTYANVRINHVINLWGADFNAEGNLEAIYVTDSDSNASIGMKKYYVGVNSAGKVAISAKEIEGDNIGAQVLGLFTLSTGQDIWNQTNLEHHHHHH and report it.
Response: 0
